Values from patent US20230310428A1

Below, each of the compounds is paired with its reported IC50 value.
# target_or_test_system: various mutants of kinase EGFR (BaF3 cell lines stably transfected with kinase) (Homo sapiens, UniProt P00533, T790M, form not given)
# Construct: other: BaF3 cells stably transfected with EGFR Δ19Del/T790M; MTS, 48 h; other: BaF3 cell line stably transfected with EGFR Δ19Del/T790M; MTS, 48
# Sequence (P00533 with tags, fused parts or gaps DEL746-750/T790M, form open): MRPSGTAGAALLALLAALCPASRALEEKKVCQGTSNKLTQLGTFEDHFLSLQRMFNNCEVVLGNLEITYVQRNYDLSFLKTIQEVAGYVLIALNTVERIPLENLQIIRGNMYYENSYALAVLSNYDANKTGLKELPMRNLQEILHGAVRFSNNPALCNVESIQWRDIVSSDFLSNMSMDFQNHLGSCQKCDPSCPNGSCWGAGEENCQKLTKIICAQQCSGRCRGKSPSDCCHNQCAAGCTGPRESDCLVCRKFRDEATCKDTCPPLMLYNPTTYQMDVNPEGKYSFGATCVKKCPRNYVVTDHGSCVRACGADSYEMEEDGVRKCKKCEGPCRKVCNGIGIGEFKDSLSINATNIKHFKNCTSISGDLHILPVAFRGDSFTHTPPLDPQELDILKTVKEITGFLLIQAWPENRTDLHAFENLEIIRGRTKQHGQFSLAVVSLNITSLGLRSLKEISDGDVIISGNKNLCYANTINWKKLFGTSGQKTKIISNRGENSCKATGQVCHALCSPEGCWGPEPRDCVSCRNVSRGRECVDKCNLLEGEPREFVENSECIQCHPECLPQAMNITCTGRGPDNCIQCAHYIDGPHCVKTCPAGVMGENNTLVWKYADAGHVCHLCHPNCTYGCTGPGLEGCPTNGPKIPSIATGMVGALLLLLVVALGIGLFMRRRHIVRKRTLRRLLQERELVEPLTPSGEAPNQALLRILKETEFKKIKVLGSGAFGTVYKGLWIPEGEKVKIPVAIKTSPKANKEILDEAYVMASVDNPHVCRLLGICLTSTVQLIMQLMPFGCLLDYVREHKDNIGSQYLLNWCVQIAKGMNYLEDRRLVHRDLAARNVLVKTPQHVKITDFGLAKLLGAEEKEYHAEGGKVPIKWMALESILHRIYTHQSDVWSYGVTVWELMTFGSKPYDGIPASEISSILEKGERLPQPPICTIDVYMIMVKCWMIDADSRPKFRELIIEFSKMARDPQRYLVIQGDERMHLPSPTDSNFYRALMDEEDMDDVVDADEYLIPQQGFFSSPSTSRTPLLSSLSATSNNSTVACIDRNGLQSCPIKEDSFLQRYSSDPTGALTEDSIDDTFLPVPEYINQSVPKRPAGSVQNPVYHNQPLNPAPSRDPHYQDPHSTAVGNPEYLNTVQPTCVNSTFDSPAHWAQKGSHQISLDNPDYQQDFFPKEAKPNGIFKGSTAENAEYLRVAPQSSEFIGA
# experimental_details: Growth inhibitory activity of compounds on BaF3 cell lines stably transfected with kinase (MTS, 48 h)
# Assay type: cell-based
# conditions: BaF3 cells stably transfected with EGFR Δ19Del/T790M, read-out: IC50, growth inhibition, Δ19Del/T790M

Examples with answers:
compound	IC50
CCc1cc(Nc2ncc(Br)c(Nc3ccc4nccnc4c3N(C)S(C)(=O)=O)n2)c(OC)cc1N1CCC(N(C)C)CC1	≤ 50 nM
CCc1cc(Nc2ncc(Br)c(Nc3ccc4nccnc4c3N(C)S(=O)(=O)C3CC3)n2)c(OC)cc1N1CCC(N(C)C)C1 (stereo not drawn)	≤ 50 nM

[ask] Find the recorded IC50 belonging to CCc1cc(Nc2ncc(Br)c(Nc3ccc4nccnc4c3N(C)S(=O)(=O)C3CC3)n2)c(OC(F)(F)F)cc1N1CCC(N2CCN(C)CC2)CC1 and report it.
[reply] ≤ 50 nM

* * *

# pIC50 listing for each entry below
# target_or_test_system: various mutants of kinase EGFR (BaF3 cell lines stably transfected with kinase) (Homo sapiens, UniProt P00533, L858R/T790M)
# Construct: expressed in transfected cells; host or cells: BaF3
# Sequence (P00533 25-1210 T790M/L858R): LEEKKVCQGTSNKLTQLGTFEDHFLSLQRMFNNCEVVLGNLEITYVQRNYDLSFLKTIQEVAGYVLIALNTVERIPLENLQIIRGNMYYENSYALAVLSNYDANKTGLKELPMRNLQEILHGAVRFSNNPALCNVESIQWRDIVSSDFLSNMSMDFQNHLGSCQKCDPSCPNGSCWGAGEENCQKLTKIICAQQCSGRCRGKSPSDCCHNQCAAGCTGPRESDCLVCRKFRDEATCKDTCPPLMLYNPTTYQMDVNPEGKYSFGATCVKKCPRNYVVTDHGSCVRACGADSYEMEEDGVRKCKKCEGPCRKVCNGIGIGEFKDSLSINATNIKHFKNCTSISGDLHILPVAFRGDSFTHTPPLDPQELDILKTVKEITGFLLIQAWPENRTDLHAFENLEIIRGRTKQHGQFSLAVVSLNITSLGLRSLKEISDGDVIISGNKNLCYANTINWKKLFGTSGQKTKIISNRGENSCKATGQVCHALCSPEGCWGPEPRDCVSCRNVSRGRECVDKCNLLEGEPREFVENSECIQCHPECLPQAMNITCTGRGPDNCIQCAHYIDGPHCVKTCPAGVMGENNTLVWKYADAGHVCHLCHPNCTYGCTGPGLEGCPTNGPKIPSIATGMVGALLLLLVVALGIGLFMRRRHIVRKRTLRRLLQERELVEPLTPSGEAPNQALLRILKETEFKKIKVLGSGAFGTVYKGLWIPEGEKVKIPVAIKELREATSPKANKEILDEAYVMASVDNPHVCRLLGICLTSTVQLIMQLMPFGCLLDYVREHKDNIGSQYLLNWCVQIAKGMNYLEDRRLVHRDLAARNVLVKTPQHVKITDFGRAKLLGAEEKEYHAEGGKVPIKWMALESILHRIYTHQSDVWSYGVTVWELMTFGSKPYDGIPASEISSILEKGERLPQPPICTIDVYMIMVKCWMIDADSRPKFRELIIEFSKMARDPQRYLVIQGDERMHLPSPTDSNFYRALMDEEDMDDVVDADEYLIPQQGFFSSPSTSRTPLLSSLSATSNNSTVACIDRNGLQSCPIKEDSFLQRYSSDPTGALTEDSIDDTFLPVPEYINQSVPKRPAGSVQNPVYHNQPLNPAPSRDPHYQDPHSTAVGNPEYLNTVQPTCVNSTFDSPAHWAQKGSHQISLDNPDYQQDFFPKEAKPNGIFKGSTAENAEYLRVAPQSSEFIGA
# experimental_details: Growth inhibitory activity of compounds on BaF3 cell lines stably transfected with kinase (MTS, 48 h)
# Assay type: cell-based
# conditions: BaF3 cells stably transfected with EGFR L858R/T790M, read-out: IC50, growth inhibition, L858R/T790M
pIC50: −log10 of the molar value.

[ask] For the compound shown here, CN(c1c(Nc2nc(NC3CC3)ncc2Br)ccc2nccnc12)S(C)(=O)=O , give the reported pIC50.
[reply] 6.30 to 7.30

[ask] // lookup pIC50 for COc1cc(N2CCN(C)CC2)c(C)cc1Nc1ncc(F)c(Nc2ccc3nccnc3c2N(C)S(C)(=O)=O)n1
[reply] 6.30 to 7.30

[ask] GET /values?readout=pIC50&item= CCc1cc(Nc2ncc(C3CC3)c(Nc3ccc4nccnc4c3N(C)S(C)(=O)=O)n2)c(OC)cc1N1CCC(N2CCN(C)CC2)CC1
[reply] ≥ 7.30

[ask] Fill blank: measured pIC50 of the compound CCc1cc(Nc2ncc(C3CC3)c(Nc3ccc4nccnc4c3N(C)S(C)(=O)=O)n2)ccc1N1CCC(N2CCN(C)CC2)CC1 is ____.
[reply] ≥ 7.30

[ask] Which pIC50 value belongs to CCc1cc(Nc2ncc(C(F)(F)F)c(Nc3ccc4nccnc4c3N(C)S(C)(=O)=O)n2)c(OC)cc1N1CCC(N(C)C)C1 (stereo not shown) ?
[reply] ≥ 7.30

[ask] Reported pIC50 for CCN(c1c(Nc2nc(Nc3cc(C)c(N4CCN(C)CC4)cc3OC)ncc2Br)ccc2nccnc12)S(C)(=O)=O : what is it?
[reply] ≥ 7.30

[ask] Data request, read-out pIC50, for COc1cc(N2CCC(N3CCN(C)CC3)CC2)c(C)cc1Nc1ncc([N+](=O)[O-])c(Nc2ccc3nccnc3c2N(C)S(C)(=O)=O)n1
[reply] ≥ 7.30

[ask] Give the measured pIC50 of Cc1ccc(Nc2ncc(Br)c(Nc3ccc4nccnc4c3N(C)S(C)(=O)=O)n2)cn1 .
[reply] ≥ 7.30

[ask] Look at this compound and give its reported pIC50. C=Cc1cc(Nc2ncc([N+](=O)[O-])c(Nc3ccc4nccnc4c3N(C)S(C)(=O)=O)n2)c(OC(F)(F)F)cc1N1CCC(N2CCN(C)CC2)CC1
[reply] 6.30 to 7.30

[ask] Need pIC50, item COc1cc(N2CCC(N3CCN(C)CC3)CC2)c(C(C)C)cc1Nc1ncc(Cl)c(Nc2ccc3nccnc3c2N(C)S(C)(=O)=O)n1
[reply] 6.30 to 7.30

[ask] Sample CCc1cc(Nc2ncc(F)c(Nc3ccc4nccnc4c3N(C)S(=O)(=O)C3CC3)n2)c(OC(F)(F)F)cc1N1CCC(N2CCN(C)CC2)CC1 — what was its pIC50?
[reply] 6.30 to 7.30

[ask] Reported pIC50, compound COc1cc(N2CCC(N3CCN(C)CC3)CC2)c(CC2CC2)cc1Nc1ncc(Br)c(Nc2ccc3nccnc3c2N(C)S(=O)(=O)C2CC2)n1 : ____
[reply] 6.30 to 7.30

[ask] Tell me the measured pIC50 of CCc1cc(Nc2ncc(Cl)c(Nc3ccc4nccnc4c3N(C)S(=O)(=O)CC)n2)c(OC)nc1N1CCC(N2CCN(C)CC2)CC1 , please.
[reply] ≥ 7.30

* * *

# target_or_test_system: various mutants of kinase EGFR (BaF3 cell lines stably transfected with kinase) (Homo sapiens, UniProt P00533, C797S/L858R/T790M)
# Construct: expressed in transfected cells; host or cells: BaF3
# Sequence (P00533 25-1210 T790M/C797S/L858R): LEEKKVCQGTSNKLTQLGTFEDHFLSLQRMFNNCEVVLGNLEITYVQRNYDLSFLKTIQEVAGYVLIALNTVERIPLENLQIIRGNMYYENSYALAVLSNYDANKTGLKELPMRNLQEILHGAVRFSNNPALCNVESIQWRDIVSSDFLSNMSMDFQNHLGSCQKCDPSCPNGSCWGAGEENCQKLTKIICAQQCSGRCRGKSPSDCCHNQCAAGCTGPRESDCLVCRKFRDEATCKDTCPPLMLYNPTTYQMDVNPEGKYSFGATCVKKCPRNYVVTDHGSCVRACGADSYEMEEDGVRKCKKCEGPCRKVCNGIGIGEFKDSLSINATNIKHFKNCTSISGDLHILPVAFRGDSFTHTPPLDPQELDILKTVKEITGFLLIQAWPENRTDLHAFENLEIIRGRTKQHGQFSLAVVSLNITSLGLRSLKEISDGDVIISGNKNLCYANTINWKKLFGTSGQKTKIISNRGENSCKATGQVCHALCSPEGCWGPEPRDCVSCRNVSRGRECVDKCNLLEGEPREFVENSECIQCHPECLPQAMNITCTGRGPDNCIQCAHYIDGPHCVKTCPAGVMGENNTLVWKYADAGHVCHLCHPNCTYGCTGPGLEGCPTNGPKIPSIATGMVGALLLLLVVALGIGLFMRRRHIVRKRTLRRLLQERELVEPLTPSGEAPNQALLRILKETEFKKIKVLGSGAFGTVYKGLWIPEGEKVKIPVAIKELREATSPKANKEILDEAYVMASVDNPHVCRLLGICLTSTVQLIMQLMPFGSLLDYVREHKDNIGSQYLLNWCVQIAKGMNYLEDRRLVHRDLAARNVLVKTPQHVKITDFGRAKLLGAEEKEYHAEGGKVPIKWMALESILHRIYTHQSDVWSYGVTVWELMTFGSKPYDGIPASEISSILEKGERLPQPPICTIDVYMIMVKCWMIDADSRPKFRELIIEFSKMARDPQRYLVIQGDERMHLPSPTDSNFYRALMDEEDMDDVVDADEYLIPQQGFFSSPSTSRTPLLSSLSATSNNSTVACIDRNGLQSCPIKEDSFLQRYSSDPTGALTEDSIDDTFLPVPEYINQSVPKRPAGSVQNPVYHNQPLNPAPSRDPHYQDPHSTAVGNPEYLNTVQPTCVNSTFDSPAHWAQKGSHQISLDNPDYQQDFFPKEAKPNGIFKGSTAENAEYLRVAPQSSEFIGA
# experimental_details: Growth inhibitory activity of compounds on BaF3 cell lines stably transfected with kinase (MTS, 48 h)
# Assay type: cell-based
# conditions: BaF3 cell line stably transfected with EGFR L858R/T790M/C797S, read-out: L858R/T790M/ C797S growth inhibitory activity IC50
In this section we review reported IC50 values for a set of molecules.

Below are worked cases with known answers.
molecule	measurement_label	endpoint_value
CCc1cc(Nc2nc(Nc3ccc4nccnc4c3N(C)S(C)(=O)=O)c3sccc3n2)c(OC)cc1N1CCC(N(C)C)C1 (centres unmarked) [II-1-17]	IC50	0.05 to 0.5 µM
COc1ccc(N2CCC(O)CC2)cc1Nc1ncc(Cl)c(Nc2ccc3nccnc3c2N(C)S(=O)(=O)C(F)(F)F)n1 [Compound I-370]	IC50	≤ 0.05 µM
COc1cc(N2CCN(C)CC2)c(C)cc1Nc1nc(Nc2ccc3nccnc3c2N(C)S(C)(=O)=O)c2cc[nH]c2n1 [II-2-12]	IC50	≤ 0.05 µM
COc1ccc(N2CCC(O)CC2)cc1Nc1ncc(OC)c(Nc2ccc3nccnc3c2N(C)S(C)(=O)=O)n1 [Compound I-366]	IC50	≤ 0.05 µM
COc1cc(N2CCC(N(C)C)C2)c(C)cc1Nc1ncc(Br)c(Nc2ccc3nccnc3c2N(C2CC2)S(C)(=O)=O)n1 (centres unmarked) [Compound I-312]	IC50	≤ 0.05 µM
COc1ccc(N2CCC(O)CC2)cc1Nc1ncc(C2CC2)c(Nc2ccc3nccnc3c2N(C)S(C)(=O)=O)n1 [Compound I-365]	IC50	≤ 0.05 µM
Cc1cc(Nc2ncc(Br)c(Nc3ccc4nccnc4c3N(C)S(C)(=O)=O)n2)nn1C [Compound I-385]	IC50	≤ 0.05 µM

Next item in the queue.
[ask] Sample CCOc1cnc(Nc2cc(C)c(N3CCC(N4CCN(C)CC4)CC3)cc2OC)nc1Nc1ccc2nccnc2c1N(C)S(C)(=O)=O [Compound I-336] — what was its IC50?
[reply] 0.05 to 0.5 µM

* * *

# target_or_test_system: various mutants of kinase EGFR (BaF3 cell lines stably transfected with kinase) (Homo sapiens, UniProt P00533, L858R/T790M)
# Construct: expressed in transfected cells; host or cells: BaF3
# experimental_details: Growth inhibitory activity of compounds on BaF3 cell lines stably transfected with kinase (MTS, 48 h)
# Type: cell-based
# conditions: BaF3 cells stably transfected with EGFR L858R/T790M, read-out: IC50, growth inhibition, L858R/T790M
pIC50: −log10 of the molar value.
pIC50 values by entry

The examples below pair each entry with its known result.
molecule	pIC50
CCN(c1c(Nc2nc(Nc3cc(C)c(N4CCC(N(C)C)CC4)cc3OC)ncc2Cl)ccc2nccnc12)S(C)(=O)=O	≥ 7.30
COc1nc(N2CCC(N3CCN(C)CC3)CC2)ccc1Nc1ncc(C(F)(F)F)c(Nc2ccc3nccnc3c2N(C)S(C)(=O)=O)n1	6.30 to 7.30
COc1cc(N2CCN(C)CC2)c(C)cc1Nc1ncc(Cl)c(Nc2ccc3nccnc3c2N(C)S(=O)(=O)C(F)(F)F)n1	5.60 to 6.30
COc1cc(N2CCC(N(C)C)C2)ccc1Nc1ncc(Br)c(Nc2ccc3nccnc3c2N(C)S(C)(=O)=O)n1 (stereo not drawn)	≥ 7.30
CCc1cc(Nc2ncc(Cl)c(Nc3ccc4nccnc4c3N(C)S(C)(=O)=O)n2)c(OC)cc1N1CCC(N(C)C)C1 (stereo not drawn)	≥ 7.30

Note: attention shifts to another entry.
[ask] Reported pIC50, molecule CCc1cc(Nc2ncc(Cl)c(Nc3ccc4nccnc4c3N(C)S(=O)(=O)C(F)(F)F)n2)c(OC)nc1N1CCC(N2CCN(C)CC2)CC1 : ____
[reply] 5.60 to 6.30

* * *

# target_or_test_system: various mutants of kinase EGFR (BaF3 cell lines stably transfected with kinase) (Homo sapiens, UniProt P00533)
# Construct: other: BaF3 cells stably transfected with EGFR Δ19Del; MTS, 48 h; other: BaF3 cell line stably transfected with EGFR Δ19Del
# Sequence (P00533 with tags, fused parts or gaps DEL746-750): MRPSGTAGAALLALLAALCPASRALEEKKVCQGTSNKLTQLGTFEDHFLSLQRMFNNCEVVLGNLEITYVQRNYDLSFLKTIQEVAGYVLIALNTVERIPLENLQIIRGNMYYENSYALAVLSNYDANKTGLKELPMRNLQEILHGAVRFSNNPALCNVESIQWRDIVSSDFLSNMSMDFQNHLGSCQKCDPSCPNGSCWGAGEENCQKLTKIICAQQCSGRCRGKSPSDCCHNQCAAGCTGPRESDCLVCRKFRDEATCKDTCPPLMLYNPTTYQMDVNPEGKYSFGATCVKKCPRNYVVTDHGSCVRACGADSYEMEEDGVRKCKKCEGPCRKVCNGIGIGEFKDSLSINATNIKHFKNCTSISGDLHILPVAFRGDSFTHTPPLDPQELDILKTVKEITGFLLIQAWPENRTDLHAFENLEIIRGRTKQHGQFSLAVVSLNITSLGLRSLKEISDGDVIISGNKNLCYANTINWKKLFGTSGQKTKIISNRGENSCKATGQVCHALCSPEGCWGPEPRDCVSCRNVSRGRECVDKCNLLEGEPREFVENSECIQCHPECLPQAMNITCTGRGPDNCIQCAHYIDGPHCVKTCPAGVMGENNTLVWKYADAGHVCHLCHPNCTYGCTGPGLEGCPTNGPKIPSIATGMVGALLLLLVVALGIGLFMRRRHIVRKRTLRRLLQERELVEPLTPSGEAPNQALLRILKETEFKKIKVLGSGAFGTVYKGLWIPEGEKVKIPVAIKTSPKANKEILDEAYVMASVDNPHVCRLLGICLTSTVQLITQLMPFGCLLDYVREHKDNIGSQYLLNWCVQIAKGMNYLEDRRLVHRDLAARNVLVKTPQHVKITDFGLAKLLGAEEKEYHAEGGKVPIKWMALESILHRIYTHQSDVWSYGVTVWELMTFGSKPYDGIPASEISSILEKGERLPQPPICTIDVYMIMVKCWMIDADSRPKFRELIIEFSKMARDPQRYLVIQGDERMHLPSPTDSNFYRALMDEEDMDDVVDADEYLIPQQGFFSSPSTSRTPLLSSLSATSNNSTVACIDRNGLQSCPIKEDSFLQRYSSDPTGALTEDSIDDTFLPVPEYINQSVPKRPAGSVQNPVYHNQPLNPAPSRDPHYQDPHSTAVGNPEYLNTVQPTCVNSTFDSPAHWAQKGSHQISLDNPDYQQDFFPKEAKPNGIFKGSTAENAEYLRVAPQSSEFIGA
# experimental_details: Growth inhibitory activity of compounds on BaF3 cell lines stably transfected with kinase (MTS, 48 h)
# Type: cell-based
# conditions: BaF3 cell line stably transfected with EGFR Δ19Del, read-out: Δ19Del growth inhibitory activity IC50
pIC50: −log10 of the molar value.
// values below are reported pIC50

compound	pIC50
COc1cc(N2CCC(N(C)C)CC2)c(C)cc1Nc1ncc(Br)c(Nc2ccc3nccnc3c2N(C2CC2)S(C)(=O)=O)n1 [Compound I-311]	6.30 to 7.30
CCc1cc(Nc2ncc(Br)c(Nc3ccc4nccnc4c3NS(C)(=O)=O)n2)c(OC)cc1N1CCN(C)CC1 [Compound I-411]	≥ 7.30
COc1ccc(N2CCC(N3CCCC3)CC2)cc1Nc1ncc(Br)c(Nc2ccc3nccnc3c2N(C)S(C)(=O)=O)n1 [Compound I-382]	6.30 to 7.30
CCc1cc(Nc2nc(Nc3ccc4nccnc4c3N(C)S(C)(=O)=O)c3sccc3n2)c(OC)nc1N1CCC(N2CCN(C)CC2)CC1 [II-1-6]	5.60 to 6.30

[ask] Consider the compound COc1ccc(N2CCC(O)CC2)cc1Nc1ncc(C(F)(F)F)c(Nc2ccc3nccnc3c2N(C)S(C)(=O)=O)n1 [Compound I-369] and give its measured pIC50.
[reply] 6.30 to 7.30

[ask] So what does the record say about pIC50 for CCc1cc(Nc2ncc(C(C)C)c(Nc3ccc4nccnc4c3N(C)S(C)(=O)=O)n2)c(OC)cc1N1CCN(C)CC1 [Compound I-329] ?
[reply] 6.30 to 7.30

[ask] Looking for the measured pIC50 of CN1CCN(C2CCN(c3c(F)cc(Nc4ncc(Br)c(Nc5ccc6nccnc6c5N(C)S(C)(=O)=O)n4)cc3F)CC2)CC1 [Compound I-354] , can you help?
[reply] 6.30 to 7.30
